measured on: Peroxisome proliferator-activated receptor gamma (Homo sapiens) (UniProt P37231)
Sequence (P37231 whole entry, looked up): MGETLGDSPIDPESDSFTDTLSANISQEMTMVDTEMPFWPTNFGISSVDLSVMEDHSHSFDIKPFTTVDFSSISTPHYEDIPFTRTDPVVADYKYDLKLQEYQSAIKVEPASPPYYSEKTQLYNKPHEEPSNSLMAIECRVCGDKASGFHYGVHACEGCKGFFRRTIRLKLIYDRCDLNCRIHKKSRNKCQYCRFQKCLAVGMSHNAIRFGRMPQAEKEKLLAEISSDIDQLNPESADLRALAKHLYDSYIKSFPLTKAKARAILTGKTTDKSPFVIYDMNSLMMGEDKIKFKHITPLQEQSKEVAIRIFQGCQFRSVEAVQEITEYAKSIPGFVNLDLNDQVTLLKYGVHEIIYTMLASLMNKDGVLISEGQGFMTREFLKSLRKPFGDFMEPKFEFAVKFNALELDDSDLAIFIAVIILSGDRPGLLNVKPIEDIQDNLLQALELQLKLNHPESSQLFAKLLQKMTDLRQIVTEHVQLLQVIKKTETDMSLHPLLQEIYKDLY
run description: OT_PPARg_PPARgSRC1_0480: Odyssey Thera (OT) 8-hour Protein-Complementation Assay for Peroxisome Proliferator-activated Receptor Gamma / SRC-1 Co-activator (AID 2283387);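 note: nuclear to cytoplasmic split Venus YFP fluorescence ratio reporting PPARg SRC-1 interaction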
Inconclusive results are not listed. Activity calls are given as the source filed them. Rule for the calls: active = hit-call score of the fitted dose curve at least 0.9, where 1 is the maximum; inconclusive = response in the unintended direction; inactive = score below 0.9.
assay readout: outcome

Below, each entry is followed by its recorded outcome result.
{"columns": ["smiles str", "outcome"],
 "data": [
  ["COCCOCCO", "inactive"],
  ["c1ccc2c(c1)Nc1ccccc1S2", "inactive"],
  ["COC(N)=O", "inactive"],
  ["c1nc[nH]n1", "inactive"]
]}

For the compound Nc1ccc(Cl)cc1 , give its reported outcome.
inactive

For the compound CCN(CC)c1ccccc1 , give its reported outcome.
inactive
